target: UniProt P56373; assay: Evaluation of human P2X3 receptor inhibitory activity (ATP-induced Fluo-3 fluorescence, FDSS 3000); details: C6BU-1 cell transfected with human P2X3 receptor gene
Sequence (P56373 whole entry): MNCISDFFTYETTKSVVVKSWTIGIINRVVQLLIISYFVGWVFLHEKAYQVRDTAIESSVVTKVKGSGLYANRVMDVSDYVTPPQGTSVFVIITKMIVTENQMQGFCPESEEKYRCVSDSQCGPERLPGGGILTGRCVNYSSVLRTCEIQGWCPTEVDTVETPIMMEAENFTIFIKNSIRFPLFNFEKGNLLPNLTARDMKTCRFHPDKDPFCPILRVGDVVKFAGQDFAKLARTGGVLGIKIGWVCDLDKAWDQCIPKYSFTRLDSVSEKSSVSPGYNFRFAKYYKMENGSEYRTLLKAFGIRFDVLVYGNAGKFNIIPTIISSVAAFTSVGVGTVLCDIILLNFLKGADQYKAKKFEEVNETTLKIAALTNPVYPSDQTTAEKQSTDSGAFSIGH
Task for the reader: assign each of the following compounds its reported log10(IC50).
The figures below represent log10 of IC50, where IC50 is stated in nM.

// input: 4 compounds below; output: log10(IC50) for each
1. CC(C)Oc1ccc(Nc2cc(=O)n(C[C@H](C)C(=O)O)c(=O)n2Cc2ccc(Cl)cc2)cc1 [I-218]
2. CC(C)Oc1ccc(Nc2cc(=O)n(CC3COC(C)(C)OC3)c(=O)n2Cc2ccc(Cl)cc2)cc1Cl [I-094]
3. O=C(Nc1cnc(Nc2ccc(Oc3cc[nH]c(=O)c3)cc2)n(Cc2ccc(Cl)cc2)c1=O)C1CCOCC1 [I-244]
4. Cc1nc2ccc(Nc3cc(=O)n(CCOC4CCCCO4)c(=O)n3Cc3ccc(Cl)cc3)cc2s1 (centres unmarked) [I-353]

1. 1.74
2. 0.70
3. 0.30
4. 0.95

// input: 2 compounds below; output: log10(IC50) for each
1. CCOC(=O)CCC1CN(Cc2ccc(Cl)cc2)C(Nc2ccc(OC(C)C)c(Cl)c2)=NC1=O (centres unmarked) [I-116]
2. CC(C)Oc1ccc(NC2=CC(O)N(CC(=O)NC(CO)CO)C(=O)N2Cc2ccc(Cl)cc2)cc1F (centres unmarked) [I-111]

1: 2.50; 2: 1.04
